# test.summary: in vitro
# details: human, HEK293T cells
# Description: Cytotoxicity against HEK293T cells assessed as cell viability at 5.6 uM by CellTiter-Glo assay relative to control
Non-standard residues stand in square brackets, D forms with d. Residues, ends and D or L forms follow the SMILES beside them. *: point of attachment. X1 = O=C(OCCCS*)Oc1ccc2nc(C3=N[C@@H](C(=O)O)CS3)sc2c1; Mpa = O=C(O)CCS
Below: a set of entries, each annotated with reported viability at 5.6 µM.
Give the value in % but do not write % after it.

I would be grateful if you could share the reported viability at 5.6 µM for CC(C)C[C@H](NC(=O)[C@H](CCCCN)NC(=O)CCSSCCCOC(=O)Oc1ccc2nc(C3=N[C@@H](C(=O)O)CS3)sc2c1)C(=O)N[C@@H](Cc1ccccc1)C(=O)N[C@@H](CC(N)=O)C(=O)N[C@@H](CCCCN)C(=O)N[C@@H](CCC(N)=O)C(=O)N[C@@H](CCC(=O)O)C(=O)N[C@@H](Cc1c[nH]c2ccccc12)C(=O)N[C@H](C(=O)N[C@@H](CC(N)=O)C(N)=O)[C@@H](C)O ([Mpa](X1)KLFNKQEWTN-NH2) .
98.8

What value of viability at 5.6 µM has been recorded for this entry: CC(C)C[C@H](NC(=O)[C@H](CCCCN)NC(=O)[C@H](Cc1c[nH]c2ccccc12)NC(=O)[C@H](CCCNC(=N)N)NC(=O)[C@H](CCCCN)NC(=O)[C@H](CC(C)C)NC(=O)[C@@H](NC(=O)[C@H](CCCNC(=N)N)NC(=O)[C@@H](NC(=O)CCSSCCCOC(=O)Oc1ccc2nc(C3=N[C@@H](C(=O)O)CS3)sc2c1)[C@@H](C)O)C(C)C)C(=O)N[C@@H](Cc1ccccc1)C(N)=O ([Mpa](X1)TRVLKRWKLF-NH2)
92.4
